Compiled notes: published Ki values involving Trypsin (Sus scrofa, UniProt P00761).
Binarize Ki at 0.06 µM; below is fulfilled, at or above is not fulfilled.

Answered examples (5):
COMPOUND: N=C(N)c1ccc(CNC(=O)[C@@H]2Cc3ccc(cc3)NC(=O)CN3CCN(CC3)CC(=O)NCc3ccc(cc3)C[C@@H](NS(=O)(=O)Cc3ccccc3)C(=O)N2)cc1
CLASS: fulfilled
//
COMPOUND: NCc1ccc(CNC(=O)[C@@H]2Cc3ccc(cc3)NC(=O)CCN3CCN(CCC(=O)Nc4ccc(cc4)C[C@@H](NS(=O)(=O)Cc4ccccc4)C(=O)N2)CC3)cc1
CLASS: not fulfilled
//
COMPOUND: N=C(N)c1ccc2cc(C(=O)Nc3ccccc3)cc(Br)c2c1
CLASS: not fulfilled
//
COMPOUND: NCc1ccc(CNC(=O)[C@@H]2Cc3ccc(cc3)NC(=O)CCN3CCN(CCC(=O)Nc4ccc(cc4)C[C@@H](NS(=O)(=O)NC4CCCCC4)C(=O)N2)CC3)cc1
CLASS: not fulfilled
//
COMPOUND: CC(C)C1=NCCc2ccc(C3CC3c3ccc4cc(C(=N)N)ccc4c3)cc21 (configuration not stated)
CLASS: fulfilled

Hi there! Is Ki for N=C(N)c1ccc(CNC(=O)[C@@H]2Cc3ccc(cc3)NC(=O)CN3CCCN(CC3)CC(=O)NCc3ccc(cc3)C[C@@H](NS(=O)(=O)Cc3ccccc3)C(=O)N2)cc1 below 0.06 µM, do you know?
fulfilled

Then CC(C)C1=NCCc2ccc([C@H]3CC3c3ccc4cc(C(=N)N)ccc4c3)cc21 (some centres not stated) ?
fulfilled

---

// cross-source set; read-out = Ki; system = Trypsin (Sus scrofa)
Sequence (P00761 whole entry): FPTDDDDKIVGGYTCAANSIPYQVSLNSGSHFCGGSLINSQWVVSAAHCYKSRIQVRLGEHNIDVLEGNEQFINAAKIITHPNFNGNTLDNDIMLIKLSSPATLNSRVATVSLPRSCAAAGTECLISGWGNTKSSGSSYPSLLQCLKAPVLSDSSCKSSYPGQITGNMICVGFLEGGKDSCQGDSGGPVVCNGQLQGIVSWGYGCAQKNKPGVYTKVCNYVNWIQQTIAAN
One number for each entry, in nM.

Consider the following illustrative entries.
MOLECULE: N=C(N)c1ccc(CNC(=O)[C@@H]2Cc3ccc(cc3)NC(=O)CCN3CCN(CCC(=O)Nc4ccc(cc4)C[C@@H](NC=O)C(=O)N2)CC3)cc1
ENDPOINT_LABEL: Ki
ASSAY_RESULT: 561
//
MOLECULE: N=C(N)c1ccc2cc(C3CC3c3ccccc3)cc(Br)c2c1 (stereo not drawn)
ENDPOINT_LABEL: Ki
ASSAY_RESULT: 334
//
MOLECULE: C[C@@H]1CN2CC(=O)Nc3ccc(cc3)C[C@@H](C(=O)NCc3ccc(C(=N)N)cc3)NC(=O)[C@H](NS(=O)(=O)Cc3ccccc3)Cc3ccc(cc3)NC(=O)CN1C[C@@H]2C
ENDPOINT_LABEL: Ki
ASSAY_RESULT: 18.1
//
MOLECULE: N=C(N)c1ccc(CNC(=O)[C@@H]2Cc3ccc(cc3)NC(=O)CN3CCN(CC3)CC(=O)Nc3ccc(cc3)C[C@@H](NS(=O)(=O)c3ccccc3)C(=O)N2)cc1
ENDPOINT_LABEL: Ki
ASSAY_RESULT: 501
//
MOLECULE: N=C(N)c1ccc2cc(C(=O)Nc3ccccc3)ccc2c1
ENDPOINT_LABEL: Ki
ASSAY_RESULT: 325
//
MOLECULE: N=C(N)c1ccc(CNC(=O)[C@@H]2Cc3ccc(cc3)NC(=O)CCN3CCN(CCC(=O)Nc4ccc(cc4)C[C@@H](NC(=O)OCc4ccccc4)C(=O)N2)CC3)cc1
ENDPOINT_LABEL: Ki
ASSAY_RESULT: 103
//
MOLECULE: NCCCCNC(=O)[C@@H]1Cc2ccc(cc2)NC(=O)CCN2CCN(CCC(=O)Nc3ccc(cc3)C[C@@H](NS(=O)(=O)NC3CCCCC3)C(=O)N1)CC2
ENDPOINT_LABEL: Ki
ASSAY_RESULT: 6200
//
MOLECULE: COC(=O)N[C@@H]1Cc2ccc(cc2)NC(=O)CCN2CCN(CCC(=O)Nc3ccc(cc3)C[C@@H](C(=O)NCc3ccc(C(=N)N)cc3)NC1=O)CC2
ENDPOINT_LABEL: Ki
ASSAY_RESULT: 109
//
MOLECULE: N=C(N)c1ccc(CNC(=O)[C@@H]2Cc3ccc(cc3)NC(=O)CN3CCCN(CC3)CC(=O)Nc3ccc(cc3)C[C@@H](NS(=O)(=O)Cc3ccccc3)C(=O)N2)cc1
ENDPOINT_LABEL: Ki
ASSAY_RESULT: 3
//
MOLECULE: NCc1ccc(CNC(=O)[C@@H]2Cc3ccc(cc3)NC(=O)CCN3CCN(CCC(=O)Nc4ccc(cc4)C[C@@H](NS(=O)(=O)c4ccccc4)C(=O)N2)CC3)cc1.O=C(O)C(F)(F)F.O=C(O)C(F)(F)F.O=C(O)C(F)(F)F
ENDPOINT_LABEL: Ki
ASSAY_RESULT: 1540

Hey, can you go through the list below and give me Ki for every item?
1. N=C(N)c1ccc2cc(C3CC3c3ccccc3)ccc2c1 (stereo not drawn)
2. N=C(N)c1ccc(CNC(=O)[C@@H]2Cc3ccc(cc3)NC(=O)CCN3CCN(CCC(=O)Nc4ccc(cc4)C[C@@H](NC(=O)CCCc4ccccc4)C(=O)N2)CC3)cc1
3. N=C(N)c1ccc2cc(/C=C/c3ccccc3)cc(Br)c2c1

1: 720; 2: 1000; 3: 480
